Form field: IC50 (one value per entry).
# tgt: NDM-1 (Klebsiella pneumoniae)
# Construct: made in house; host or cells: Escherichia coli
# protocol details: biochemical
# Protocol: Recombinant forms of NDM-1, NDM-1 M67C, VIM-1, VIM-2, SPM-1, IMP-1 and BcII MBLs were produced in Escherichia coli as described in J. Med. Chem. 56, 6945-6953 (2013) and Makena et al Chem MechCHem 8, 1923-9 (2013). […] The experiments were performed by using a NovaStar microplate reader (using path length correction) and were performed at r.t. […] The kinetic values determined were the means from at least three independent measurements. […]
The reply should read as a number followed by its unit.

molecule	IC50
CN1CCN(NC(=O)CN2C(=O)C(=Cc3c(Cl)ccc(Cl)c3Cl)SC2=S)CC1 (mixture of isomers)	9.44 µM

Please examine the following record next.
stdin: Return reported IC50; argument: O=C(O)C(S)=Cc1c(Cl)ccc(Cl)c1Cl (racemic) [ML302F]
stdout: 1.05 µM
